# Test system: CAL-51
# procedure_summary: normalised viability (% of control), CellTiter-Blue; higher = more viable cells (about 100 = DMSO control)
# conditions_used: 300 nM; incubation time: 72 h
metric_name: normalised viability (%)
Lab book: enter the figure in %, no units written.

# count of solved cases: 2
| smiles | obs_value |
| --- | --- |
| COc1cc2nccc(Oc3ccc(NC(=O)Nc4cc(C)on4)c(Cl)c3)c2cc1OC | 89.8 |
| O=C(Cc1ccc(-c2ccc(OCCN3CCOCC3)cc2)cn1)NCc1ccccc1 | 13.9 |

Query :: Entry under review: `C[C@H]1C[C@@H]2[C@H]([C@@H](O)C[C@@]3(C)[C@H]2CC[C@]3(O)C(=O)CO)[C@@]2(C)C=CC(=O)C=C12` . Reported normalised viability?
Result :: 105

Query :: Entry under review: `CCCS(=O)(=O)Nc1ccc(F)c(C(=O)c2c[nH]c3ncc(-c4ccc(Cl)cc4)cc23)c1F` . Reported normalised viability?
Result :: 96.5

Query :: Entry under review: `O=C(O)C(=O)O.[NH-][C@@H]1CCCC[C@H]1[NH-].[Pt+2]` . Reported normalised viability?
Result :: 95.5

====

The entries below are paired with their reported normalised response.
# System: CAL-120
# procedure_summary: normalised response (% of control), CellTox Green; higher = less cell death (100 = DMSO, 0 = benzethonium chloride kill control)
# conditions_used: incubation time: 72 h
Lab book: enter the figure in %, no units written.

| molecule | normalised response, % |
| --- | --- |
| CNC(=O)c1cc(Oc2ccc(NC(=O)Nc3cc(C(C)(C)C)nn3-c3ccc4ncccc4c3)c(F)c2)ccn1 [Rebastinib] (10 nM) | 101 |
| CC1=C(/C=C/C(C)=C/C=C/C(C)=C/C(=O)O)C(C)(C)CCC1 [Tretinoin] (10000 nM) | 101 |
| CCCS(=O)(=O)Nc1ccc(F)c(C(=O)c2c[nH]c3ncc(-c4ccc(Cl)cc4)cc23)c1F [Vemurafenib] (10000 nM) | 97.3 |
| O=C(Cc1ccc(-c2ccc(OCCN3CCOCC3)cc2)cn1)NCc1ccccc1 [KX2-391] (1000 nM) | 90.4 |
| C=CCc1cccc(/C=N/NC(=O)CN2CCN(Cc3ccccc3)CC2)c1O [PAC-1] (1000 nM) | 102 |
| CNC(=O)c1cc(Oc2ccc(NC(=O)Nc3cc(C(C)(C)C)nn3-c3ccc4ncccc4c3)c(F)c2)ccn1 [Rebastinib] (1000 nM) | 85.9 |

Query :: Entry under review: C=CC(=O)Nc1cc2c(Nc3ccc(F)c(Cl)c3)ncnc2cc1OCCCN1CCOCC1 [Canertinib] (1000 nM) . Reported normalised response?
Result :: 97.7

Query :: Entry under review: CC[C@H](C)C(=O)O[C@H]1C[C@H](O)C=C2C=C[C@H](C)[C@H](CC[C@@H](O)C[C@@H](O)CC(=O)O)[C@H]21 [Pravastatin] (1000 nM) . Reported normalised response?
Result :: 100

Query :: Entry under review: Nc1nc2[nH]cc(CCc3ccc(C(=O)N[C@@H](CCC(=O)O)C(=O)O)cc3)c2c(=O)[nH]1 [Pemetrexed] (1000 nM) . Reported normalised response?
Result :: 100

Query :: Entry under review: CCCS(=O)(=O)Nc1ccc(F)c(C(=O)c2c[nH]c3ncc(-c4ccc(Cl)cc4)cc23)c1F [Vemurafenib] (1000 nM) . Reported normalised response?
Result :: 99.7

Query :: Entry under review: O=C(O)CCCCC(CCSCc1ccccc1)SCc1ccccc1 (stereo not drawn) [CPI-613] (100 nM) . Reported normalised response?
Result :: 102

Query :: Entry under review: COc1cc2c(NC3CCN(C(C)C)CC3)nc(C3CCCCC3)nc2cc1OCCCN1CCCC1 [UNC0638] (100 nM) . Reported normalised response?
Result :: 100

Query :: Entry under review: C[C@H]1C[C@@H]2[C@H]([C@@H](O)C[C@@]3(C)[C@H]2CC[C@]3(O)C(=O)CO)[C@@]2(C)C=CC(=O)C=C12 [Methylprednisolone] (1000 nM) . Reported normalised response?
Result :: 101

Query :: Entry under review: Cc1cnc(NC(=O)Nc2cc(Br)c(C)cc2OC[C@@H]2CNCCO2)cn1 [Rabusertib] (100 nM) . Reported normalised response?
Result :: 99.9

Query :: Entry under review: COc1cc2nccc(Oc3ccc(NC(=O)Nc4cc(C)on4)c(Cl)c3)c2cc1OC [Tivozanib] (100 nM) . Reported normalised response?
Result :: 96.9

Query :: Entry under review: CC[C@H](Nc1ncnc2[nH]cnc12)c1nc2cccc(F)c2c(=O)n1-c1ccccc1 [GS-1101] (100 nM) . Reported normalised response?
Result :: 102

Query :: Entry under review: C=CCc1cccc(/C=N/NC(=O)CN2CCN(Cc3ccccc3)CC2)c1O [PAC-1] (100 nM) . Reported normalised response?
Result :: 106

Query :: Entry under review: CCCCC(=O)OCC(=O)[C@]1(O)Cc2c(O)c3c(c(O)c2[C@@H](O[C@H]2C[C@H](NC(=O)C(F)(F)F)[C@H](O)[C@H](C)O2)C1)C(=O)c1c(OC)cccc1C3=O [Valrubicin] (5000 nM) . Reported normalised response?
Result :: 128
